# Tested on: Staphylococcus aureus (ATCC25923)
Counter-ions that a name gives are not always drawn.
endpoint-label: MIC (µg/mL)
Please state the figure in µg/mL; there is no need to write the unit.

Consider the worked cases shown below.
Cl.N[C@H]1CC[C@H](NC(=O)CC(c2cccnc2)c2cn(Cc3ccccc3)c3ccccc23)CC1 (stereo partly shown) [Compound 99]	256
Cc1cccc(C(CC(=O)N[C@H]2CC[C@H](N)CC2)c2cn(Cc3ccccc3)c3ccccc23)c1.Cl (stereo partly shown) [Compound 64]	64
Cc1cccc(C(CC(=O)NC2CCC(N)CC2)c2cn(CC3CCCCC3)c3ccc(-c4ccnn4C)cc23)c1.Cl (stereo not shown) [Compound 183]	9
Cc1cccc(C(CCNCC2CNCCO2)c2cn(CC3CCCCC3)c3ccccc23)c1 (stereo not shown) [Compound 288, hydrochloride salt]	4
NC1CCC(NCCCc2cn(CC3CCCCC3)c3ccc(-c4cccc(OC(F)(F)F)c4)cc23)CC1 (stereo not shown) [Compound 242, hydrochloride salt]	2

Lab note: need MIC for Cc1cccc(C(CC(=O)NC2CCC(N)CC2)c2cn(CC3CCCCC3)c3cc(Br)ccc23)c1 (stereo not shown) [Compound 222, hydrochloride salt] on Staphylococcus aureus (ATCC25923), anyone have it?
5

Missing value: MIC, Staphylococcus aureus (ATCC25923), entry Cc1cccc(C(CCNC2CCC(N)CC2)c2cn(CC3CCCCC3)c3ccc(Br)cc23)c1 (stereo not shown) [Compound 169, hydrochloride salt] . Fill in?
2

Write down the reported MIC of N[C@H]1CC[C@H](NCCc2cn(CC3CCCCC3)c3ccc(-c4cccc(OC(F)(F)F)c4)cc23)CC1 [Compound 274, hydrochloride salt] , test system: Staphylococcus aureus (ATCC25923).
2

# value lookup — system Staphylococcus aureus (ATCC25923), readout MIC, item O=C(CC(c1cn(CC2CCCCC2)c2ccccc12)C1CCNCC1)NCCC1CCNCC1 (stereo not shown) [Compound 145, hydrochloride salt]
512

What measured MIC is associated with Cc1cccc(CC(CC(=O)N[C@H]2CC[C@H](N)CC2)c2cn(CC3CCCCC3)c3ccccc23)c1.Cl (stereo partly shown) [Compound 202] on Staphylococcus aureus (ATCC25923)?
2

----------
List of MIC tested on Staphylococcus aureus (ATCC25923).
Structures can show the parent of a compound that is named as a salt.
Field format: number, assumed µg/mL, no unit text.

Cc1cccc(C(CC(=O)NC2CCNCC2)c2cn(CC3CCCCC3)c3ccc(Br)cc23)c1.Cl (centres unmarked)	8
Cc1cccc(C(CC(=O)NC2CCCC(N)C2)c2cn(CC3CCCCC3)c3ccccc23)c1.Cl (centres unmarked)	8
Cc1cccc(C(CC(=O)NC2CCNCC2)c2cn(Cc3ccccc3)c3ncccc23)c1.Cl (centres unmarked)	250
NC1CCC(NC(=O)Cc2cn(CC3CCCCC3)c3ccc(-c4ccncc4)cc23)CC1 (centres unmarked) [Compound 255, hydrochloride salt]	8
N[C@H]1CC[C@H](CN2CCC(c3cn(CC4CCCCC4)c4ccccc34)CC2)CC1 [Compound 217, hydrochloride salt]	8

What reported MIC corresponds to Cc1cccc(C(CC(=O)N[C@H]2CC[C@H](N)CC2)c2cn(CCC3CCCCC3)c3ccccc23)c1.Cl (some centres unmarked) on Staphylococcus aureus (ATCC25923)?
32

What is its MIC for Staphylococcus aureus (ATCC25923)? Entry: Cc1cccc(C(CC(=O)N2CCC(CN)CC2)c2cn(CC3CCCCC3)c3ccccc23)c1.Cl (centres unmarked)
8

Any idea what MIC came out for NC1CCC(NCCC(c2cccc(F)c2)c2cn(CC3CCCCC3)c3ccccc23)CC1 (centres unmarked) [Compound 172, hydrochloride salt] on Staphylococcus aureus (ATCC25923)?
4

----------
Below, each entry is listed with its recorded MIC.
# System: Staphylococcus aureus subsp. aureus (ATCC29213)
# experiment-description: MIC, broth microdilution (CLSI), Staphylococcus aureus ATCC29213
# Type: cell-based
# condition-context: Staphylococcus aureus, ATCC29213, Table XIII; read-out: S. aureus ATCC 29213 MIC
Structures can show the parent of a compound that is named as a salt.
Lab book: enter the figure in µg/mL, no units written.

Solved entries (count: 3):
Cc1ccccc1-c1ccc2c(c1)c(CCCNCCCN)cn2C1CCCCC1.Cl.Cl [Compound 362]	4
Cl.Cl.N[C@H]1CC[C@H](NCCC(c2ccncc2)c2cn(C3CCCCC3)c3ccccc23)CC1 (stereo partly drawn) [Compound 340]	64
N[C@H]1CC[C@H](NCCc2cn(CC3CCCCC3)c3ccc(-c4cccc(OC(F)(F)F)c4)cc23)CC1 [Compound 274, hydrochloride salt]	4

Fill in: MIC of NCCCNCCC(c1cn(C2CCCCC2)c2ccccc12)C1CCCCC1 (stereo not drawn) [Compound 383] is ___
4

Query: MIC; subject: Cl.Cl.NCCCNCCC(c1cccc(F)c1)c1cn(C2CCCCC2)c2ccccc12 (stereo not drawn) [Compound 344]
8

Record request: MIC value, item Cc1cccc(C(CCNCCCN)c2cn(CC3CCCCC3)c3ccccc23)c1.Cl.Cl (stereo not drawn) [Compound 346]
8

Which MIC reading was recorded for the molecule Cl.Cl.NCCCNCCCc1cn(C2CCCCC2)c2ccc(C3CCCCC3)cc12 [Compound 399] ?
4

Quick check: MIC of NC1CCC(NCCC(c2ccc(F)c(F)c2)c2cn(CC3CCCCC3)c3ccccc23)CC1 (stereo not drawn) [Compound 161, hydrochloride salt] ?
2

Reported MIC, molecule Cl.Cl.NCCCNCCC(c1cn(C2CCCCC2)c2ccccc12)C1CCCC1 (stereo not drawn) [Compound 423] : ____
8

Which measured MIC value corresponds to Cc1ccccc1C(CCNCCCN)c1cn(C2CCCCC2)c2ccccc12.Cl.Cl (stereo not drawn) [Compound 345] ?
8

Could you share which MIC value was measured for Cc1cccc(C(CCNCCCN2CCCC2)c2cn(C3CCCCC3)c3ccccc23)c1 (stereo not drawn) [Compound 367] ?
64

----------
Where a name gives a salt, the structure may show the parent alone.
The next entries give measured log10 of MIC for Staphylococcus aureus (ATCC25923).
Annotation: log10 of MIC, µg/mL basis.

Cc1ccccc1C(CC(=O)NC1CCC(N)CC1)c1cn(CC2CCCCC2)c2ccccc12.Cl (stereo not drawn) [Compound 149]	1.20
NC1CCC(NCCC(c2cccc(OC(F)(F)F)c2)c2cn(CC3CCCCC3)c3ccccc23)CC1 (stereo not drawn) [Compound 173, hydrochloride salt]	0.30
Cc1cccc(C(CC(=O)N[C@H]2CC[C@H](N)CC2)c2cn(C(C)C3CCCCC3)c3ccccc23)c1.Cl (stereo partly drawn) [Compound 299]	0.90
Cc1cccc(C(CC(=O)NC2CCNCC2)c2cn(Cc3ccccc3)c3ccccc23)c1.Cl (stereo not drawn) [Compound 80]	1.51
Cc1cccc(C(CCN2CCC(N)CC2)c2cn(CC3CCCCC3)c3ccccc23)c1 (stereo not drawn) [Compound 216, hydrochloride salt]	0.60
Cc1cccc(-c2ccc3c(c2)c(CC(=O)N[C@H]2CC[C@H](N)CC2)cn3CC2CCCCC2)c1.Cl [Compound 209]	0.60
Cl.N[C@H]1CC[C@H](NC(=O)CCc2nn(CC3CCCCC3)c3ccc(Br)cc23)CC1 [Compound 270]	1.81
Cl.O=C(Cc1cn(CC2CCC(F)(F)CC2)c2ccc(Br)cc12)NC1CCNCC1 [Compound 277]	1.81

Now take the following molecule into account.
Value lookup for log10 of MIC; key = Cl.Nc1ccc(NC(=O)CCc2cn(CC3CCCCC3)c3ccc(Br)cc23)cn1 [Compound 298]
1.18

----------
log10(MIC), Staphylococcus aureus (ATCC25923), per-entry values.
Counter-ions that a name gives are not always drawn.
Scale: log10; quantity: MIC; unit before log: µg/mL

CCOP(=O)(NCCC1CCN(C(=O)CC(c2cccc(C)c2)c2cn(CC3CCCCC3)c3ccccc23)CC1)OCC (stereo not drawn)	2.50
Cc1cccc(C(CC(=O)NC2CCNCC2)c2cn(CC3CCC(F)(F)CC3)c3ccc(Br)cc23)c1.Cl (stereo not drawn)	1.00
COc1ccccc1-c1ccc2c(c1)c(CCCN[C@H]1CC[C@H](N)CC1)cn2CC1CCCCC1 [Compound 237, hydrochloride salt]	0.30
Cl.N[C@H]1CC[C@H](NC(=O)CCc2cn(CC3CCCCC3)c3ccccc23)CC1	2.11

Value wanted: log10(MIC) (Staphylococcus aureus (ATCC25923)) of entry Cc1cccc(C(CC(=O)NC2CCNCC2)c2cn(CCC3CCCCC3)c3ccccc23)c1.Cl (stereo not drawn)
0.60

Request - read-out log10(MIC) | tested on Staphylococcus aureus (ATCC25923) | compound Cc1cccc(C(CCNC[C@H]2CC[C@H](CN)CC2)c2cn(CC3CCCCC3)c3ccccc23)c1 (stereo partly drawn) [Compound 177, hydrochloride salt]
0.95

Field: log10(MIC) (Staphylococcus aureus (ATCC25923)). Entry: "Cl.N[C@H]1CC[C@H](NC(=O)c2cn(CC3CCCCC3)c3ccc(Br)cc23)CC1"
1.18

Find log10(MIC) (Staphylococcus aureus (ATCC25923)) for the entry Cc1cccc(C(CC(=O)NC2CCNCC2)c2cn(CC3CCCC3)c3ccccc23)c1.Cl (stereo not drawn)
1.20
